Value source: the supplement of paper PMC11208160

- measurementProtocol: recombinant UMI read abundance after kanamycin selection (control-corrected) (log10(CPM+1)); higher = more efficient recombination; extreme values may be limits of the assay; sequences stand for … in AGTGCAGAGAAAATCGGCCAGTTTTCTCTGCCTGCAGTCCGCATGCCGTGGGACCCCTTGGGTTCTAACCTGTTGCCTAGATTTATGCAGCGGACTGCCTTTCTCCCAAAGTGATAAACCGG…AGGTTGGTTTCACT; site = the 11-nt donor
For each entry below, report its recombinant UMI read abundance (log10) value.
One number for each entry.

{"columns": ["inputSequence", "property", "value"],
 "data": [
  ["CTCGACACATGGACCGGTTTTCCCGGTAATCCGTATTTGCT (site CTCTACACTAG)", "recombinant UMI read abundance (log10)", 2.03],
  ["CGATCGTCATGGACCGGTTTTCCCGGTAATCCGTATTTGTT (site CGATCGGCTAA)", "recombinant UMI read abundance (log10)", 0.0205],
  ["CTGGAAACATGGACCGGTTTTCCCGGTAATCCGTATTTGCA (site CTGGAACCTTG)", "recombinant UMI read abundance (log10)", 0.0058],
  ["GTTAGAGCATGGACCGGTTTTCCCGGTAATCCGTATTTGCA (site GTTCGAGCTTG)", "recombinant UMI read abundance (log10)", 1.01]
]}

I would be grateful if you could provide recombinant UMI read abundance (log10) for each of the following entries.
1. AAGGACTCATGGACCGGTTTTCCCGGTAATCCGTATTTGTT (site AAGGACTCTAA)
2. CGGCAGTCATGGACCGGTTTTCCCGGTAATCCGTATTTGCC (site CGGCAGTCTGG)
3. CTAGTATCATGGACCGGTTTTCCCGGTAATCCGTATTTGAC (site CTAGTAACTCT)

[2.9, 2.22, 0.0077]

I would be grateful if you could provide recombinant UMI read abundance (log10) for each of the following entries.
1. ACTGGATCATGGACCGGTTTTCCCGGTAATCCGTATTTGCA (site ACTGGATCTTG)
2. GATTACTCATGGACCGGTTTTCCCGGTAATCCGTATTTGTC (site GATTACTCTGA)
3. GTGCCTACATGGACCGGTTTTCCCGGTAATCCGTATTTGGC (site GTGCCTACTGC)

1. 1.64
2. 1.09
3. 1.12

I would be grateful if you could provide recombinant UMI read abundance (log10) for each of the following entries.
1. GAAGATTCATGGACCGGTTTTCCCGGTAATCCGTATTTGGT (site GAAGATTCTAC)
2. ATATGGCCATGGACCGGTTTTCCCGGTAATCCGTATTTGAC (site ATATGGCCTGT)
3. ATAAGGCCATGGACCGGTTTTCCCGGTAATCCGTATTTGTC (site ATAAGGCCTGC)
4. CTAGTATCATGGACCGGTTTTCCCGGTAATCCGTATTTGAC (site CTAGACTCTGT)
5. TGTACCCCATGGACCGGTTTTCCCGGTAATCCGTATTTGAC (site TGTACGCCTGT)
6. ACAGGATCATGGACCGGTTTTCCCGGTAATCCGTATTTGAA (site ACAGGATCTTT)
7. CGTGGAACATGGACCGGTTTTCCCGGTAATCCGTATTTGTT (site CATGGAACTAA)

[3.05, 0, 0, 0, 0, 2.93, 0.0194]

I would be grateful if you could provide recombinant UMI read abundance (log10) for each of the following entries.
1. TGGAAGACATGGACCGGTTTTCCCGGTAATCCGTATTTGCG (site TGGAAGACTCG)
2. ACGTGCACATGGACCGGTTTTCCCGGTAATCCGTATTTGGG (site ACGTGCACTCC)
3. CACTGCTCATGGACCGGTTTTCCCGGTAATCCGTATTTGCC (site CACTTCTCTGG)
4. GGTAGTGCATGGACCGGTTTTCCCGGTAATCCGTATTTGCC (site GGTAGTGCTGG)
5. CGGAATTCATGGACCGGTTTTCCCGGTAATCCGTATTTGTT (site CGGAATCCTAA)
6. CCAGGTGCATGGACCGGTTTTCCCGGTAATCCGTATTTGAC (site CCAGGTGCTTT)
7. ACGCACGCATGGACCGGTTTTCCCGGTAATCCGTATTTGGG (site ACGCACGCTCC)
8. CCAGGTGCATGGACCGGTTTTCCCGGTAATCCGTATTTGAA (site CCAGGTGCTCT)

1: 2.05; 2: 0.0159; 3: 0; 4: 1.61; 5: 0.0141; 6: 0.00791; 7: 0.00911; 8: 0.218

I would be grateful if you could provide recombinant UMI read abundance (log10) for each of the following entries.
1. CACGCAGCATGGACCGGTTTTCCCGGTAATCCGTATTTGCG (site CACGCAGCTCG)
2. CAACTCACATGGACCGGTTTTCCCGGTAATCCGTATTTGGG (site CAACTCACTCC)
3. CTTTAGACATGGACCGGTTTTCCCGGTAATCCGTATTTGAG (site CTTTAGACTCT)
4. CCAGGTGCATGGACCGGTTTTCCCGGTAATCCGTATTTGAA (site CCAGGTGCTTT)

1. 1.32
2. 0.0233
3. 1.31
4. 1.73

I would be grateful if you could provide recombinant UMI read abundance (log10) for each of the following entries.
1. CGTTATCCATGGACCGGTTTTCCCGGTAATCCGTATTTGTC (site CGTTATCCTGA)
2. ACACGAACATGGACCGGTTTTCCCGGTAATCCGTATTTGCC (site ACACGAACTGT)
3. GGATCATCATGGACCGGTTTTCCCGGTAATCCGTATTTGCT (site CGATCATCTAG)
4. ACAATAACATGGACCGGTTTTCCCGGTAATCCGTATTTGCA (site ACAGTATCTTG)
5. CTGAACTCATGGACCGGTTTTCCCGGTAATCCGTATTTGCG (site CTGAACTCTCG)

1. 1.46
2. 1.59
3. 0.511
4. 1.03
5. 2.99

* * *

- measurementProtocol: recombinant UMI read abundance after kanamycin selection (control-corrected) (log10(CPM+1)); higher = more efficient recombination; extreme values may be limits of the assay; sequences stand for … in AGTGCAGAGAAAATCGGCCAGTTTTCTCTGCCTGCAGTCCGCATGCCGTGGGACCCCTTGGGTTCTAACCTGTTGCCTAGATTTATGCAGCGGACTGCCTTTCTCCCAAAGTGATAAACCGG…AGGTTGGTTTCACT; site = the 11-nt donor
property: recombinant UMI read abundance (log10)
Give bare numbers.

Completed entries (count: 2):
{"columns": ["inputSequence", "recombinant UMI read abundance (log10)"],
 "data": [
  ["CCCAACACATGGACCGGTTTTCCCGGTAATCCGTATTTGTA (site CCCCACACTTA)", 0.0125],
  ["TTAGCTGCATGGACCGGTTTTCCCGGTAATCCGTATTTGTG (site TTAGCGGCTCA)", 0.00865]
]}

Now let's try a different one.
Which recombinant UMI read abundance (log10) is listed for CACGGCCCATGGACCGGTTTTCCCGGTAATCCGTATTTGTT (site CAGGGCCCTAA) ?
0.00724

* * *

- measurementProtocol: recombinant barcode read abundance after kanamycin selection (control-corrected) (log10(CPM+1)); higher = more efficient recombination; sequences stand for … in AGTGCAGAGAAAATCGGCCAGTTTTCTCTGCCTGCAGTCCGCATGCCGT…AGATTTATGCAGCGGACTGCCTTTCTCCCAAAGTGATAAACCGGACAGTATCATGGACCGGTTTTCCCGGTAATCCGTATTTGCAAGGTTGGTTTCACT; site = the 11-nt target
Label Yes when recombinant barcode read abundance (log10) is at or above 0.4; anything below gets No.

Previously resolved entries follow.
{"columns": ["inputSequence", "qualitativeLabel"],
 "data": [
  ["CGCCTTCCTTGGGTTCTAACCTGTTGCAT (site CGCCCTCCTAT)", "No"],
  ["GTGAAGCCTTGGGTTCTAACCTGTTGCCT (site ATGAAGCCTAG)", "Yes"],
  ["GTTTGACCTTGGGTTCTAACCTGTTGCTT (site GTTTGCCCTAA)", "No"]
]}

Could you verify whether the entry GAGTGTTCTTGGGTTCTAACCTGTTGCTT (site TGTACGACTCC) shows recombinant barcode read abundance (log10) of no less than 0.4?
No

* * *

- measurementProtocol: recombinant UMI read abundance after kanamycin selection (control-corrected) (log10(CPM+1)); higher = more efficient recombination; extreme values may be limits of the assay; sequences stand for … in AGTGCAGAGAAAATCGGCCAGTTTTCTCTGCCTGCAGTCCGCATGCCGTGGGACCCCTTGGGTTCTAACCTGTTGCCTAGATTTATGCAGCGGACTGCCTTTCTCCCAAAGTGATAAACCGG…AGGTTGGTTTCACT; site = the 11-nt donor
property: recombinant UMI read abundance (log10)

I would be grateful if you could provide recombinant UMI read abundance (log10) for each of the following entries.
1. GCCACGACATGGACCGGTTTTCCCGGTAATCCGTATTTGTA (site GCCACGGCTTA)
2. ACATCTGCATGGACCGGTTTTCCCGGTAATCCGTATTTGTG (site ACATCTCCTCA)
3. AAGGAGCCATGGACCGGTTTTCCCGGTAATCCGTATTTGGG (site AAGGAGCCTCC)
4. TAATGAGCATGGACCGGTTTTCCCGGTAATCCGTATTTGGT (site TAATGAGCTAC)
5. CCCATAACATGGACCGGTTTTCCCGGTAATCCGTATTTGTC (site CCCATACCTGA)
6. CTGGAAACATGGACCGGTTTTCCCGGTAATCCGTATTTGCC (site CTGGAAACTAG)

1. 0.423
2. 0.0207
3. 0.00843
4. 0.862
5. 0
6. 0

I would be grateful if you could provide recombinant UMI read abundance (log10) for each of the following entries.
1. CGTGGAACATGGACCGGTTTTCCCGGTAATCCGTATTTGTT (site CGTGGAACTAT)
2. ATCAGGCCATGGACCGGTTTTCCCGGTAATCCGTATTTGAC (site ATCAGGCCTGT)
3. CGAAGATCATGGACCGGTTTTCCCGGTAATCCGTATTTGCT (site CGATCATCTAG)
4. GTGGATGCATGGACCGGTTTTCCCGGTAATCCGTATTTGTG (site GTGGAAGCTCA)
5. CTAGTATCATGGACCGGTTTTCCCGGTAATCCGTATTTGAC (site ATAGTTTCTGT)
6. AGGACTACATGGACCGGTTTTCCCGGTAATCCGTATTTGGC (site AGGACTACTGA)
7. GGGGCAGCATGGACCGGTTTTCCCGGTAATCCGTATTTGCA (site GGGGCATCTTG)
8. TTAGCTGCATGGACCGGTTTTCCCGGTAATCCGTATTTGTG (site TTAGCTTCTCA)

1. 0.403
2. 0
3. 0
4. 1.82
5. 0
6. 0
7. 0.336
8. 0.00647
